Source listed as paper PMC10716780.

Target: P450 11A1 (CYP11A1) (Homo sapiens, UniProt P05108)
Construct: M A S T R S P R P F N E I P S P G D N; Met-Ala (N-terminal start residues in place of the transit peptide and Ile40) (N); made in house; host or cells: E. coli (P450 11A1 in C41(DE3); Adx and AdR in E. coli)
Sequence (P05108 41-521 limits assumed): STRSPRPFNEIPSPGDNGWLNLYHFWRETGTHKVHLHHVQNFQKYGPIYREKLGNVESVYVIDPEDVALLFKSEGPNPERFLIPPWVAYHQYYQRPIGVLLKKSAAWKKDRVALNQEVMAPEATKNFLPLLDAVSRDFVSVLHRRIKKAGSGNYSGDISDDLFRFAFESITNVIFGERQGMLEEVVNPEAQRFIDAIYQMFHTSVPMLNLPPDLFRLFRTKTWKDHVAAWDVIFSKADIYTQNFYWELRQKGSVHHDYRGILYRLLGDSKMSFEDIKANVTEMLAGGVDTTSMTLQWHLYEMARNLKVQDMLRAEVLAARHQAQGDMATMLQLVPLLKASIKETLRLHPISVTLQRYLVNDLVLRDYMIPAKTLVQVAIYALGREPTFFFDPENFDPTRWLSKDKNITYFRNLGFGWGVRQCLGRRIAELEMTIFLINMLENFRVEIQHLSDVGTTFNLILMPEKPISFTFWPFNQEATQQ
Sequence (P00257 59-186 partner): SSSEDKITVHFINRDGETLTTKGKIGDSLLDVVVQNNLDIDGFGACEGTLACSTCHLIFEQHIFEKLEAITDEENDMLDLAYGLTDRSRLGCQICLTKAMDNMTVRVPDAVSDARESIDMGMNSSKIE
Experiment: Kinetic isotope effect assay, disappearance of d0- and d3-cholesterol under single-turnover conditions
Format: biochemical
Settings: human, pH 7.4; 5 μM P450, 5 μM sterol, low Adx single-turnover; read-out: sterol half-life (t1/2) (converted)
property_name: half-life at 5 μM (s)
Numbers only, in s.

compound	unit_name	half-life at 5 μM
CC(C)CCC[C@@H](C)[C@H]1CC[C@H]2[C@@H]3CC=C4C[C@@H](O)CC[C@]4(C)[C@H]3CC[C@]12C [Cholesterol]	s	20

Okay, next one:
Quick note, half-life at 5 μM for [2H]C([2H])(CCC(C)C)[C@@]([2H])(C)[C@H]1CC[C@H]2[C@@H]3CC=C4C[C@@H](O)CC[C@]4(C)[C@H]3CC[C@@]21C [d3-cholesterol, (20R)-Cholest-5-ene-20,22,22-d3-3β-ol] landed at 22
